measured.on: furin, P09958
Sequence (P09958 whole entry): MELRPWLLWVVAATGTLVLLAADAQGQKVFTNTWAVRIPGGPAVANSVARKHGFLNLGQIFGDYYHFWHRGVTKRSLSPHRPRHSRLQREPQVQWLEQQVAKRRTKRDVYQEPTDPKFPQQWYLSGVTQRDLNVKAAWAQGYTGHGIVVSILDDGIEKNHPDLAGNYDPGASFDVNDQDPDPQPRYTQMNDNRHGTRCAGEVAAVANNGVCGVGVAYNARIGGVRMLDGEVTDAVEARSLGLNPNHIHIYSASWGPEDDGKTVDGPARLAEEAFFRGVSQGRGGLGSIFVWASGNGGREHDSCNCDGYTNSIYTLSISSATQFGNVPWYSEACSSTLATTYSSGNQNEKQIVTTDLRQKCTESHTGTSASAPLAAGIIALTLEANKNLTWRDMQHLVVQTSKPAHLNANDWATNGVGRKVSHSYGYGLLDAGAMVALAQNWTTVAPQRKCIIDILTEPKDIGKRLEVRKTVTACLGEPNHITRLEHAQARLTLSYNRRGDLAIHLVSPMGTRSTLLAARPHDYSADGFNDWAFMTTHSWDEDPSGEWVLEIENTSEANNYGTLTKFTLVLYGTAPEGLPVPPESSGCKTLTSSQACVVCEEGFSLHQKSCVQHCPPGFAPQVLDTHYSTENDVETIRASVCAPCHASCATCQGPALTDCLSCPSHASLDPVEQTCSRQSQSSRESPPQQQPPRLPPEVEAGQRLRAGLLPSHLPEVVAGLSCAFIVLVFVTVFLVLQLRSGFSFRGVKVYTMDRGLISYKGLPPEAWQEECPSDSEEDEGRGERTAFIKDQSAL
assay: furin cleavage Z-score vs untreated control; higher = more cleavage, active = 3.5 or more, inactive = 1 or less, 8 variable residues between constant flanks;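 also: purified furin at 1:10 enzyme:substrate in 50 mM HEPES pH 7.5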
condition.context: 30 min
The list shows a part of the results. No count for the full screen is at hand.
# maps each entry to its furin cleavage Z-score

CARGKRYSYKAGNASASA [FS-2019]; 1.19

input: What furin cleavage Z-score value was documented for this sequence, CAALEVVTSTAGNASASA [HC2263] ?
output: -0.927 (inactive)

input: What furin cleavage Z-score value was documented for this sequence, CAVKSRKRRKAGNASASA [FS-149] ?
output: 8.76 (active)

input: What furin cleavage Z-score value was documented for this sequence, CAAAIREKRAAGNASASA [FS-153] ?
output: 8.65 (active)

input: What furin cleavage Z-score value was documented for this sequence, CARVDRDVAPAGNASASA [FS-2616] ?
output: 0.369 (inactive)

input: What furin cleavage Z-score value was documented for this sequence, CAPQARVAIKAGNASASA [HC1494] ?
output: 1.74
